# Tested on: HSC-2;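 further: growth inhibition of human HSC-2 cells, read out by a cell viability assay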
# protocol: cells
# Type: functional, cell-based
# conditions_used: Homo sapiens
# Description: SANGER: Inhibition of human HSC-2 cell growth in a cell viability assay.
// returns NOT MET unless IC50 is strictly below 10 nM, in which case MET

Exam item: Quick check: does `Cn1cc(/C=C2\C(=O)Nc3cccnc32)c2ccccc21` have IC50 under 10 nM?
Marked response: NOT MET

Exam item: Lookup Cn1c(=O)n(-c2ccc(C(C)(C)C#N)cc2)c2c3cc(-c4cnc5ccccc5c4)ccc3ncc21 [DACTOLISIB]
Marked response: NOT MET

Exam item: Similarly, CC[C@@]1(O)C(=O)OCc2c1cc1n(c2=O)Cc2cc3ccccc3nc2-1 [CAMPTOTHECIN] ?
Marked response: NOT MET

Exam item: Also, C[C@]1(c2nc3c(C(N)=O)cccc3[nH]2)CCCN1 [VELIPARIB] please.
Marked response: NOT MET

Exam item: Try this compound next: C/C=C(/C)C(=O)O[C@H]1C(C)=C2[C@H]([C@@H]1OC(=O)CCCCCCC)[C@@](C)(OC(C)=O)C[C@H](OC(=O)CCC)[C@@]1(O)[C@H]2OC(=O)[C@@]1(C)O [THAPSIGARGIN]
Marked response: MET

Exam item: Repeat with CC(=O)c1c(C)c2cnc(Nc3ccc(N4CCNCC4)cn3)nc2n(C2CCCC2)c1=O [PALBOCICLIB]
Marked response: NOT MET

Exam item: Input CC[C@]1(O)C[C@@H]2CN(CCc3c([nH]c4ccccc34)[C@@](C(=O)OC)(c3cc4c(cc3OC)N(C)[C@H]3[C@@](O)(C(=O)OC)[C@H](OC(C)=O)[C@]5(CC)C=CCN6CC[C@]43[C@@H]65)C2)C1 [VINBLASTINE]
Marked response: NOT MET

Exam item: Okay, and `C/C(O)=C(\C#N)C(=O)Nc1cc(Br)ccc1Br` ?
Marked response: NOT MET

Exam item: Now give it for CCNC(=O)c1noc(-c2cc(C(C)C)c(O)cc2O)c1-c1ccc(CN2CCOCC2)cc1 [LUMINESPIB] too.
Marked response: MET

====

I'd appreciate it if you could supply pIC50 values for the items below.
# Tested on: KY821
# protocol: cells
# Assay type: functional, cell-based
# conditions_used: Homo sapiens
# Description: SANGER: Inhibition of human KY821 cell growth in a cell viability assay.
Give only the number. pIC50 is defined as minus log10 of concentration in molar units.

Exam item: Param item = `CO[C@@]12[C@H](COC(N)=O)C3=C(C(=O)C(C)=C(N)C3=O)N1C[C@@H]1N[C@@H]12` ; retrieve measured pIC50.
Marked response: 5.78

Exam item: Same question for `CC(C)=CC[C@@H](O)C1=CC(=O)c2c(O)ccc(O)c2C1=O` please.
Marked response: 6.13

Exam item: Now the same for `Cc1n[nH]c2ccc(-c3cncc(OC[C@@H](N)Cc4c[nH]c5ccccc45)c3)cc12`
Marked response: 6.61

====

# Test system: NCI-H2009;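 further: cell viability assay measuring inhibition of NCI-H2009 cell growth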
# protocol: cells
# Type: functional, cell-based
# conditions_used: Homo sapiens
# Description: SANGER: Inhibition of human NCI-H2009 cell growth in a cell viability assay.
metric: IC50 (nM)
Express the result in nM but write the number alone.

Exam item: # query: IC50 of entry `C/C=C(/C)C(=O)O[C@H]1C(C)=C2[C@H]([C@@H]1OC(=O)CCCCCCC)[C@@](C)(OC(C)=O)C[C@H](OC(=O)CCC)[C@@]1(O)[C@H]2OC(=O)[C@@]1(C)O`
Marked response: 1.63

Exam item: Same thing, different molecule: `CC[C@@]1(O)C(=O)OCc2c1cc1n(c2=O)Cc2cc3ccccc3nc2-1`
Marked response: 68.1

Exam item: Now give it for `Fc1cc(-c2cc[nH]/c(=N/c3ccc(-n4cnc(N5CCOCC5)n4)cc3)n2)cc(N2CCOCC2)c1` too.
Marked response: 508
